# Tested on: batrachotoxin (BTX) binding site of the sodium channel
# protocol.text: Affinity to the batrachotoxin (BTX) binding site of the sodium channel
# condition.notes: Table II; rat cerebrocortex synaptosomes; test concentration not given
Item-by-item account of BTX inhibition
reported.metric: BTX inhibition

compound	experimental.system	experimental.value
Cl.O=C(c1ccco1)N1CCC2(CC1)N[C@@H](Cc1ccccc1)C(=O)N2Cc1ccccc1	batrachotoxin (BTX) binding site of the sodium channel	39
Cl.O=C(c1ccc(Cl)cc1)N1CCC2(CC1)N[C@@H](Cc1ccccc1)C(=O)N2Cc1ccc(F)cc1 (racemic)	batrachotoxin (BTX) binding site of the sodium channel	47
Cl.O=C(COc1ccc(Cl)cc1)N1CCC2(CC1)N[C@@H](Cc1ccccc1)C(=O)N2Cc1ccccc1	batrachotoxin (BTX) binding site of the sodium channel	64
CCC(CC)C(=O)N1CCC2(CC1)N[C@@H](Cc1ccccc1)C(=O)N2Cc1ccc(OC)cc1.Cl (racemic)	batrachotoxin (BTX) binding site of the sodium channel	35
Cl.O=C(c1ccc(C(F)(F)F)c(F)c1)N1CCC2(CC1)N[C@@H](Cc1ccccc1)C(=O)N2Cc1ccccc1	batrachotoxin (BTX) binding site of the sodium channel	48
COc1cccc(C(=O)N2CCC3(CC2)N[C@@H](Cc2ccccc2)C(=O)N3Cc2ccccc2)c1.Cl	batrachotoxin (BTX) binding site of the sodium channel	41
CCC(CC)C(=O)N1CCC2(CC1)N[C@@H](Cc1ccccc1)C(=O)N2Cc1ccc(F)cc1.Cl (racemic)	batrachotoxin (BTX) binding site of the sodium channel	61

Cited source for all entries: patent US7951815B2
